Target: KDM4E (Homo sapiens, UniProt B2RXH2)
Construct: KDM4DM1-L359,[39]; KDM4EM1-R336,[30]; His6 (N); made in house; host or cells: Escherichia coli
Sequence (B2RXH2 1-336): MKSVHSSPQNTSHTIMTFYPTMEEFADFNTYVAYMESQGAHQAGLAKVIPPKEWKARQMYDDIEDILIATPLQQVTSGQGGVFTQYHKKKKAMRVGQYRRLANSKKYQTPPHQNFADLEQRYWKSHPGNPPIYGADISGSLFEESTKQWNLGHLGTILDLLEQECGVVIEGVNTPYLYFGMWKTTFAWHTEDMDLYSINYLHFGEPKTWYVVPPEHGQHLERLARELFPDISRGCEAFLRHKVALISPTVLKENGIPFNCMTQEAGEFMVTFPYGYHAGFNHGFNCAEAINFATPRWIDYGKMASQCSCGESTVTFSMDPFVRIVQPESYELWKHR
Protocol: LC-MS demethylation activity assay, KDM4E
Assay type: biochemical
Details: 2 μM KDM4E, 10 μM peptide, standard conditions, 2 h, room temperature
Protocol: The substrate specificity of JmjC KDMs for H1 was examined using liquid chromatography coupled to mass spectrometry (LC-MS) assays. The H1 peptides (10 μM) were incubated with the recombinant KDM (2 μM) in HEPES buffer at pH 7.5 at room temperature for 2 h, in the presence of ferrous(II) ammonium sulfate (FAS, 10 μM), sodium ascorbate (LAA, 100 μM) and 2OG (20 μM), and then quenched with formic acid. […]
Square brackets hold non-standard residues; d marks the D form. Ends that are not written are not given here. Lys(Me3) = C[N+](C)(C)CCCC[C@H](N)C(=O)O
Readout Kind: di-methylated product formed by KDM4E

// lookup di-methylated product formed by KDM4E for KKKATK[Lys(Me3)]AAGAGAAK [Peptide H1.5K26me3, 15-mer linker histone H1.5 residues 20-34 peptide, tri-methylated K26]
~40%

Next record, please: KKKAAK[Lys(Me3)]AGGTPRKA [Peptide H1.2K26me3, 15-mer linker histone H1.2 residues 20-34 peptide, tri-methylated K26]
~50%

Next record, please: KKKA[Lys(Me3)]KAGATAGKRK [Peptide H1.3K24me3, 15-mer linker histone H1.3 residues 20-34 peptide, tri-methylated K24]
~42%

Next record, please: KKKAR[Lys(Me3)]SAGAAKRKA [Peptide H1.4K25me3, 15-mer linker histone H1.4 residues 20-34 peptide, tri-methylated K25]
~28%

Next record, please: KKKAA[Lys(Me3)]KAGGTPRKA [Peptide H1.2K25me3, 15-mer linker histone H1.2 residues 20-34 peptide, tri-methylated K25]
~50%

* * *

Target: KDM4E (Homo sapiens)
Construct: KDM4DM1-L359,[39]; KDM4EM1-R336,[30]; His6 (N); made in house; host or cells: Escherichia coli
Protocol: LC-MS demethylation activity assay, KDM4E
Format: biochemical
Details: 2 μM KDM, 10 μM H1/H3 peptide, 10 μM FAS, 100 μM LAA, 20 μM 2OG, 50 mM HEPES pH 7.5, 2 h, room temperature, M (mono-) initial methylation state
Readout Kind: KDM4E demethylation activity, M

Worked cases, answers included:
[
  {
    "Substance": "KKKAAKmeKAGGTPRKA [Peptide H1.2K25me, 15-mer linker histone H1.2 residues 20-34 peptide, mono-methylated K25]",
    "Readout Kind": "KDM4E demethylation activity, M",
    "Measured": "● [red]"
  },
  {
    "Substance": "KKKATKmeKAAGAGAAK [Peptide H1.5K25me, 15-mer linker histone H1.5 residues 20-34 peptide, mono-methylated K25]",
    "Readout Kind": "KDM4E demethylation activity, M",
    "Measured": "● [red]"
  },
  {
    "Substance": "KKKATKKmeAAGAGAAK [Peptide H1.5K26me, 15-mer linker histone H1.5 residues 20-34 peptide, mono-methylated K26]",
    "Readout Kind": "KDM4E demethylation activity, M",
    "Measured": "● [red]"
  },
  {
    "Substance": "SAPATGGVKmeKPHRYRPGTVAL [Peptide H3K36me, histone H3 residues 28-48 peptide with mono-methylated K36; control, reference compound]",
    "Readout Kind": "KDM4E demethylation activity, M",
    "Measured": "● [red]"
  }
]

// moving on: another record for KDM4E demethylation activity, M
// lookup KDM4E demethylation activity, M for KKKAKKmeAGATAGKRK [Peptide H1.3K25me, 15-mer linker histone H1.3 residues 20-34 peptide, mono-methylated K25]
● [red]
